Where these numbers come from: ChEMBL document CHEMBL5370629

- assayed_system: ABHD12 (lysophosphatidylserine lipase) (Homo sapiens, UniProt Q8N2K0)
- Sequence (Q8N2K0 whole entry): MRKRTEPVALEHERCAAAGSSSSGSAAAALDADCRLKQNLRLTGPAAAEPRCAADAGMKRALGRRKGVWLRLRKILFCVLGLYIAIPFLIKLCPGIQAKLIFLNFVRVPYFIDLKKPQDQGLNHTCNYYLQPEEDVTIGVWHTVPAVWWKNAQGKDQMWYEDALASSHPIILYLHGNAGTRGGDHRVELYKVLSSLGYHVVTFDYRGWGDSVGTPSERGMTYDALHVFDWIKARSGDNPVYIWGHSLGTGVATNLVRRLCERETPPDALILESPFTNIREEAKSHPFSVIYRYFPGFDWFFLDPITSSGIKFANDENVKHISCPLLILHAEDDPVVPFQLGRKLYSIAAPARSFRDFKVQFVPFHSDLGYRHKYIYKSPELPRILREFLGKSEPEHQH
- procedure_text: Inhibition of azido-fluorophosphonate probe binding to human ABHD12 expressed in HEK293T cells at 100 uM incubated for 1 hr followed by azido-fluorophosphonate addition and measured after 1 hr by fluorescent Western blotting analysis relative to control
- Assay type: toxicity, cell-based
- test_conditions: HEK293T cells that express human ABHD12, probe azido-fluorophosphonate
measured_endpoint: inhibition at 2 h, 100 µM (%)

INSERT INTO assay_data (smiles_representation, measured_endpoint, value_observed) VALUES
  ('COC(=O)[C@]1(C)CCC[C@]2(C)c3cc(-c4csc([C@H](C)O)n4)c(C(C)C)cc3CC[C@@H]12', 'inhibition at 2 h, 100 µM', 60.9);
